Test: solvent given as SMILES
Settings: in CO
OUTCOME_MEASURE: absorption maximum (nm)

Please review the entries below; each comes with its answer.
>>> value_reported("CC1(C)C(/C=C/C2=C(Oc3ccc(CCN=C=S)cc3Cl)C(=C/C=C3/N(CCCS(=O)(=O)[O-])c4ccccc4C3(C)C)/CCC2)=[N+](CCCS(=O)(=O)[O-])c2ccccc21")
768
>>> value_reported("CC1(C)C(/C=C/C2=C(Oc3ccc(CCN=C=S)cc3I)C(=C/C=C3/N(CCCS(=O)(=O)[O-])c4ccccc4C3(C)C)/CCC2)=[N+](CCCS(=O)(=O)[O-])c2ccccc21")
766
>>> value_reported("Brc1cnc(-c2ccncc2)s1")
306

[P] Oc1cccc(-c2nc(-c3ccccc3)c(-c3ccccc3)[nH]2)c1
[Q] CCC1=C(C)C2=Cc3c4ccccc4c4n3[B-](c3cc[n+](C)cc3)(Oc3ccccc3-4)[N+]2=C1C (centres undefined)
Asked: Please indicate which item has the smaller measured absorption maximum: P versus Q State the label of the item chosen.
Given back: P

[A] Clc1ccc(/C=C(\c2ccccc2)c2nc3ccccc3s2)cc1
[B] CCN(C)c1ccc(C2=C3C(C)=CC(/C=C/c4ccc(OCC(=O)OC)cc4)=[N+]3[B-](F)(F)n3c(C)cc(C)c32)cc1
Asked: Hi, I'm comparing A with B and wondering which one has the bigger number for absorption maximum. Any idea? State the label of the item chosen.
Given back: B

[P] O=C1Nc2ccccc2/C1=C/C(=O)c1ccc(Cl)cc1Cl
[Q] CC1(C)C(/C=C/C2=C(Cl)C(=C/C=C3/N(Cc4ccccc4)c4ccccc4C3(C)C)/CCC2)=[N+](Cc2ccccc2)c2ccccc21
Asked: Please indicate which item has the smaller measured absorption maximum: P versus Q State the label of the item chosen.
Given back: P
(P: 339 nm, Q: 784 nm)

[A] COc1cc(C(=O)O)ccc1O
[B] C[N+]1=C(/C=C/C2=C3Oc4c(cc5c6c4CCCN6CCC5)C(c4ccccc4C(=O)O)=C3CCC2)C(C)(C)c2c1ccc1ccccc21
Asked: Please indicate which item has the smaller measured absorption maximum: A versus B State the label of the item chosen.
Given back: A
(A: 293.6 nm, B: 730 nm)

----------
Assay: solvent given as SMILES
Settings: in CN(C)C=O
OUTCOME_MEASURE: absorption maximum (nm)

>>> value_reported("COC(=O)C(N)Cc1ccc(O[Si]2(Oc3ccc(CC(N)C(=O)OC)cc3)n3c4c5ccccc5c3/N=C3N=C(/N=c5/c6ccccc6/c(n52)=N/C2=NC(=N\\4)/c4ccccc42)c2ccccc2\\3)cc1 (stereo not drawn)")
680
>>> value_reported("c1ccc(-c2nn(-c3ccccc3)c3nc4ccc(-n5c6ccccc6c6ccccc65)cc4cc23)cc1")
414.94
>>> value_reported("O=C1C=C(Nc2ccccc2)CCC1")
306
>>> value_reported("Cc1cc(=O)c2ccc(N)cc2o1")
325
>>> value_reported("CCOC(=O)c1sc(SC)c2c(=O)[nH]nnc12")
389

[P] O=C1c2ccc3c4ccc5c6c(ccc(c7ccc(c2c37)C(=O)N1c1ccc(Cl)cc1)c64)C(=O)N(c1ccc(Cl)cc1)C5=O
[Q] Cc1nc2cccc(-c3nc4ccccc4o3)c2c(=O)[nH]1
[R] F[B-]1(F)n2c(c3cc4ccccc4cc3c2-c2ccccc2)C=C2c3cc4ccccc4cc3C(c3ccccc3)=[N+]21
Asked: # sort list by recorded absorption maximum, greatest to least Answer by naming the labels in the order asked.
Given back: R, P, Q
